System: KM-20L2
Procedure Text: NCI tumour cell line growth inhibition, 48 h
Activity calls are given as the source filed them. No stated cut-off is given here; in the data, active = GI50 up to about 1.1 µM and inactive = higher.
// one of true for active, false for inactive, no free text

1) CCc1c(C#N)c(=O)[nH]c(=O)n1CCN1CCN(C(=O)NCCCCCCNC(=O)N2CCN(CCn3c(CC)c(C#N)c(=O)[nH]c3=O)CC2)CC1 ... false
2) O=C(CSc1nnc(-c2ccc(/N=C\c3ccc(Cl)cc3)cc2)o1)Nc1cccc([N+](=O)[O-])c1 ... false
3) Cc1cc(=O)oc2cc(OCc3nc4ccccc4c(=O)[nH]3)ccc12 ... false
4) O=C(CSc1nnc(-c2ccc(/N=C\c3ccc(Cl)cc3)cc2)o1)Nc1ccc([N+](=O)[O-])cc1 ... false
5) O=C(c1nc2ccc(Cl)cc2nc1O)C(O)c1ccc2c(c1)OCO2 (stereo not given) ... false
6) CC(=O)CC(=O)Nc1ccccc1C(F)(F)F ... false
7) CCOc1ccc2c(ccc(/C=C/c3cc(C)c4cccnc4c3O)[n+]2C)c1 ... true
8) O=C(c1ccccc1)C(c1ccccc1)C1(O)C(=O)Nc2ccc(Br)cc21 (stereo not given) ... false
9) CCc1ccccc1NC(=O)CCc1nnc(S)[nH]1 ... false

With those in mind, consider the next molecule.
input: For this molecule, state the assay outcome: Cc1ccccc1C(C#N)C(=O)C(=O)Nc1nc([N+](=O)[O-])cs1 (stereo not given)
output: false

----------
Measured GI50, listed per entry.
Test system: SK-MEL-28
Procedure Text: NCI tumour cell line growth inhibition, 48 h
Activity calls are given as the source filed them. Rule as the data show it: active = GI50 up to about 1.1 µM and inactive = higher.

input: Complete the entry with GI50 for `OC[C@@H](O)[C@H]1NC[C@@H](O)[C@H]1O`
output: > 100 µM (inactive)

input: Tell me its GI50 given `NC12CC3CC4C1CC1CC2C(C3)C4(N)C1` as the entry.
output: > 100 µM (inactive)

input: Note down GI50 recorded for Cc1c(/N=N/c2ccccc2)c(-c2ccccc2)n(C2OC(CO)C(O)C(O)C2O)c(=S)c1C#N (stereo not given)
output: 4.03 µM (inactive)

input: Give recorded GI50. CC(C)C(Sc1nc(-c2ccccc2)c(-c2ccccc2)[nH]1)C(=O)NNC(=S)Nc1ccccc1 (stereo not given)
output: 22.7 µM (inactive)

input: Tell me its GI50 given `CO[C@]12S[C@@H]3CCCC[C@@]31C(C)(C)C(=O)N2c1ccccc1` as the entry.
output: 75.5 µM (inactive)

input: For the compound COC1C(=[N+]=[N-])C(=O)NC(=O)N1C1OC(COC(c2ccccc2)(c2ccccc2)c2ccccc2)C(O)C1O (stereo not given) , give its reported GI50.
output: 16.4 µM (inactive)

input: Please report the measured GI50 for COc1cc2c(c(OC(C)=O)c1OC(C)=O)-c1ccc(SC)c(=O)cc1C(NC(C)=O)CC2 (stereo not given)
output: 3.24 µM (inactive)

input: Please give the documented GI50 of `COc1ccc(N2C(=O)c3c(c4[nH]c5ccc(OC)cc5c4c4ccc(C(C)(C)C)cc34)C2=O)cc1`
output: > 100 µM (inactive)

input: Please report the measured GI50 for CC(CCC=O)CCOCc1ccccc1 (stereo not given)
output: > 100 µM (inactive)

input: Name the recorded GI50 of the item `COCN1C(=O)[C@@H]2CCCN2C(=O)c2ccc(Cl)cc21` in your answer.
output: > 100 µM (inactive)

input: Using known records, supply GI50 for C=CC(C)(C)[C@@]12CC3C(=O)N[C@@H](Cc4ccccc4)C(=O)N3[C@@H]1N(C(C)=O)c1ccccc12 (stereo not given in full)
output: > 100 µM (inactive)

input: Identify GI50 associated with the compound O=C(Nc1nnc(-c2ccccc2)o1)C(SC(=S)N1CCOCC1)c1ccccc1 (stereo not given)
output: 46.9 µM (inactive)

input: Determine its reported GI50: `COc1ccccc1/[N+]([O-])=C/c1ccccc1OC(=S)S`
output: > 100 µM (inactive)
